Give koff for every item shown.
Test target: T1, Human soluble IL6-R (human, UniProt P08887 20-358)
T1 construct: Bought soluble receptor; biotinylated in some Alphascreen assays; also called sIL6-R; hIL-6R
T1 sequence (looked up): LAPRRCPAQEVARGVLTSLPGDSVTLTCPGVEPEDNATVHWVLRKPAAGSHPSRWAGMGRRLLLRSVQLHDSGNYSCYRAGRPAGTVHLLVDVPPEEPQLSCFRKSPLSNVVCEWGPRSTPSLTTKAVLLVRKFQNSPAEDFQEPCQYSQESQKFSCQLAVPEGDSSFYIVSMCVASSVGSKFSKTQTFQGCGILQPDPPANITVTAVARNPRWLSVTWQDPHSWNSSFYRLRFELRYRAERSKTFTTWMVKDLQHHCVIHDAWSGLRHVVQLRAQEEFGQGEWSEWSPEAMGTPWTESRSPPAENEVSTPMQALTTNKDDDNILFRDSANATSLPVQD
Procedure summary: SPR (Biacore 3000), IL6-R on CM5 chip
Number in s⁻¹, nothing else.

IN: What does the data say about its koff? Entry: IL6R82 (VHH, Humanized variant of IL6R13) VHH: EVQLVESGGGLVQPGGSLRLSCAASGFTFDDYGMSWVRQAPGKGLEWVSAISWNGNNTYYTESMKGRFTISRDNAKNTVYLQMNSLRPEDTAVYYCVKGSTAIVGVPPTYPDEYDYWGQGTLVTVSS
OUT: 0.00314

IN: What does the data say about its koff? Entry: IL6R83 (VHH, Humanized variant of IL6R13) VHH: EVQLVESGGGLVQPGGSLRLSCAASGFTFDDYGMSWVRQAPGRATEWVSAISWNGNNTYYTESMKGRFTISRDNAKNTLYLQMNSLRPEDTAVYYCVKGSTAIVGVPPTYPDEYDYWGQGTLVTVSS
OUT: 0.00012

IN: What does the data say about its koff? Entry: IL6R86 (VHH, Humanized variant of IL6R13) VHH: EVQLVESGGGLVQPGGSLRLSCAASGFTFDDYGMSWVRQAPGRALEWVSAISWNGNNTYYTESMKGRFTISRDNAKNTLYLQMNSLRPEDTAVYYCVKGSTAIVGVPPTYPDEYDYWGQGTLVTVSS
OUT: 0.0017

IN: What does the data say about its koff? Entry: IL6R72 (VHH, Humanized variant of IL6R04) VHH: EVQLVESGGGLVQPGGSLRLSCAASGFTFSDYDIGWFRQAPGKGREGVSGISSSDGNTYYADSVKGRFTISSDNAKNTVYLQMNSLRPEDTAVYYCAAEPPDSSWYLDGSPEFFKYWGQGTLVTVSS
OUT: 0.00018

# credit: patent US20140221623A1
